ASSAY SYSTEM: T1, Rhino chromodomain G31A (Rhino residues 20-90) (D. melanogaster, UniProt Q7JXA8 20-90, G31A)
T1 construct: Rhino (HP1d), D. melanogaster, chromodomain construct spanning residues 20-90, with G31A; also called G31A mutant; source: E. coli BL21-CodonPlus (DE3)-RIPL, purified (Ni-NTA, Ulp1 cleavage, ion exchange, Superdex75); not shown: His6, N-terminal, cleaved; SUMO, N-terminal, cleaved
T1 sequence (looked up): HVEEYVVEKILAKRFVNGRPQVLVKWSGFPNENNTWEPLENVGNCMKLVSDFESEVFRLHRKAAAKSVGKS
PROTOCOL SUMMARY: ITC; chromodomain at 100 µM, H3K9me3 peptide at approximately 1 mM; 20 mM Tris, pH 8.0, 25 mM NaCl, 2 mM β-mercaptoethanol; 20°C; MicroCal iTC200, sixteen 2.5 µl injections
CONDITION NOTES: both partners purified
pKd: −log10 of the molar value. Ends that are not written are not given here. Me3 = trimethyl (on lysine, trimethyl-lysine)

BINDER	pKd
KQTARK(Me3)STGGK (histone H3 N-terminal tail, K4 to K14 with K9 trimethylated; also called H3K9me3-modified histone tail peptide; synthetic H3K9me3 peptides; source: synthetic peptide; bought: AnaSpec, Inc) [H3K9me3 peptide (KQTAR-K[me3]-STGGK)]	4.36

Numbers sourced from paper PMC11245307.
